Assay: Probe fluorescence ratio response to arachidonic acid relative to ADIFAB2
Type: binding
Settings: arachidonic acid; response relative to ADIFAB2

Molecule	DR/DR AA
14L 72G 117I (protein, listed as Rattus norvegicus, PEPTIDE (1)...(131) wild-type rat intestinal fatty acid binding protein) AFDGTWKVDRNENLEKFMEKMGINVVKRKLGAHDNLKLTITQEGNKFTVKESSNFRNIDVVFELGVDFAYSGADGTELTGTWTMEGNKLVGKFKRVDNGKELIAVREISGNELIQTITYEGVEAKRIFKKE	0.787
31Y2, 72A (protein, listed as Rattus norvegicus, PEPTIDE (1)...(131) wild-type rat intestinal fatty acid binding protein) AFDGTWKVDRNENYEKFMEKMGINVVKRKLYAHDNLKLTITQEGNKFTVKESSNFRNIDVVFELGVDFAYSAADGTELTGTWTMEGNKLVGKFKRVDNGKELIAVREISGNELIQTYTYEGVEAKRIFKKE	0.37
119G, 72A (protein, listed as Rattus norvegicus, PEPTIDE (1)...(131) wild-type rat intestinal fatty acid binding protein) AFDGTWKVDRNENYEKFMEKMGINVVKRKLGAHDNLKLTITQEGNKFTVKESSNFRNIDVVFELGVDFAYSAADGTELTGTWTMEGNKLVGKFKRVDNGKELIAVREISGNELIQTYTGEGVEAKRIFKKE	0.83
36F1, 72A (protein, listed as Rattus norvegicus, PEPTIDE (1)...(131) wild-type rat intestinal fatty acid binding protein) AFDGTWKVDRNENYEKFMEKMGINVVKRKLGAHDNFKLTITQEGNKFTVKESSNFRNIDVVFELGVDFAYSAADGTELTGTWTMEGNKLVGKFKRVDNGKELIAVREISGNELIQTYTYEGVEAKRIFKKE	0.66
14L 18I 31L 73F 117A 72A (protein, listed as Rattus norvegicus, PEPTIDE (1)...(131) wild-type rat intestinal fatty acid binding protein) AFDGTWKVDRNENLEKFIEKMGINVVKRKLLAHDNLKLTITQEGNKFTVKESSNFRNIDVVFELGVDFAYSAFDGTELTGTWTMEGNKLVGKFKRVDNGKELIAVREISGNELIQTATYEGVEAKRIFKKE	1.297
